Recorded values, source patent US6413913B1.

In this section we review reported Herbicide rating SETVI values for a set of compounds.
- Tested on: SETVI (Foxtail, Green)
- Assay Overview: Preemergence herbicidal evaluation
- Assay type: in vivo, Setaria viridis, (L.) Beau
- Condition Info: 0.100 kg/ha, rated about 2-4 weeks after treatment, scale 0-9

| Compound Structure | Herbicide rating SETVI |
| --- | --- |
| CCn1ncc(C(=S)c2ccc3c(c2C)/C(=N/OC)CCS3(=O)=O)c1O | 8.4 |
| CCn1ncc(C(=S)c2ccc3c(c2C)C(C)(C)CS3(=O)=O)c1O | 3.0 |
| Cc1c(C(=S)c2cnn(C)c2O)ccc2c1C(C)(C)CS2(=O)=O | 7.0 |
| CCCS(=O)(=O)Oc1c(C(=S)c2ccc3c(c2C)/C(=N/OC)CCS3(=O)=O)cnn1CC | 6.0 |

Now consider a different compound.
Print SETVI (Foxtail, Green) Herbicide rating SETVI for "CCn1ncc(C(=S)c2cc(C)c3c(c2C)C(C)(C)CCS3(=O)=O)c1O" .
5.0

====

In this section we review reported Herbicide rating ECHCG values for a set of compounds.
- Tested on: ECHCG (Barnyardgrass)
- Assay Overview: Postemergence herbicidal evaluation
- Assay type: in vivo, Echinochloa crus-galli, (L.) Beau
- Condition Info: 0.100 kg/ha, rated about 2-3 weeks after treatment, scale 0-9, averaged
- Protocol: Seedling plants are grown in jiffy flats for about two weeks. The test compounds are dispersed in 80/20 (v/v) acetone/water mixtures containing 1.0% SUN-IT® II, a methylated seed oil, in sufficient quantities to provide the equivalent of about 0.006 kg/ha to 0.800 kg/ha of active compound when applied to the plants through a spray nozzle operating at 40 psi for a predetermined time. […]
Just the number.

Past entries and their recorded results:
| Compound Structure | Assay Target | Herbicide rating ECHCG |
| --- | --- | --- |
| CCn1ncc(C(=S)c2cc(C)c3c(c2C)C(C)(C)CCS3(=O)=O)c1O | ECHCG (Barnyardgrass) | 9.0 |
| CCn1ncc(C(=S)c2ccc3c(c2C)/C(=N/OC)CCS3(=O)=O)c1O | ECHCG (Barnyardgrass) | 7.8 |
| Cc1c(C(=S)c2cnn(C)c2O)ccc2c1C(C)(C)CS2(=O)=O | ECHCG (Barnyardgrass) | 9.0 |

Now consider a different compound.
Determine its reported Herbicide rating ECHCG: "CCn1ncc(C(=S)c2ccc3c(c2C)C(C)(C)CS3(=O)=O)c1O"
8.0

====

- Test system: PANDI (Panicum, Fall)
- Assay Overview: Preemergence herbicidal evaluation
- Type: in vivo, Panicum dichotomiflorum, Michx.
- Condition Info: 0.050 kg/ha, rated about 2-4 weeks after treatment, scale 0-9
Parameter: Herbicide rating PANDI
Just the number.

Past entries and their recorded results:
| Compound | Herbicide rating PANDI |
| --- | --- |
| CCn1ncc(C(=S)c2ccc3c(c2C)C(C)(C)CS3(=O)=O)c1O [Example 4] | 2.0 |
| CCn1ncc(C(=S)c2cc(C)c3c(c2C)C(C)(C)CCS3(=O)=O)c1O [Example 2] | 5.0 |
| CCCS(=O)(=O)Oc1c(C(=S)c2ccc3c(c2C)/C(=N/OC)CCS3(=O)=O)cnn1CC [Example 5] | 7.0 |

Determine its reported Herbicide rating PANDI: Cc1c(C(=S)c2cnn(C)c2O)ccc2c1C(C)(C)CS2(=O)=O [Example 3]
6.5

Determine its reported Herbicide rating PANDI: CCn1ncc(C(=S)c2ccc3c(c2C)/C(=N/OC)CCS3(=O)=O)c1O [Example 1]
8.0

====

- System: AMBEL (Ragweed, Common)
- Assay Overview: Postemergence herbicidal evaluation
- Type: in vivo, Ambrosia artemisifolia, L.
- Condition Info: 0.100 kg/ha, rated about 2-3 weeks after treatment, scale 0-9, averaged
Parameter: Herbicide rating AMBEL

| Molecule | Herbicide rating AMBEL |
| --- | --- |
| CCn1ncc(C(=S)c2ccc3c(c2C)/C(=N/OC)CCS3(=O)=O)c1O [Example 1] | 8.4 |
| Cc1c(C(=S)c2cnn(C)c2O)ccc2c1C(C)(C)CS2(=O)=O [Example 3] | 8.0 |
| CCn1ncc(C(=S)c2ccc3c(c2C)C(C)(C)CS3(=O)=O)c1O [Example 4] | 8.0 |

Now consider a different molecule.
Determine its reported Herbicide rating AMBEL: CCn1ncc(C(=S)c2cc(C)c3c(c2C)C(C)(C)CCS3(=O)=O)c1O [Example 2]
9.0

====

In this section we review reported Herbicide rating ECHCG values for a set of compounds.
- Tested on: ECHCG (Barnyardgrass)
- Assay Overview: Postemergence herbicidal evaluation
- Type: in vivo, Echinochloa crus-galli, (L.) Beau
- Condition Info: 0.050 kg/ha, rated about 2-3 weeks after treatment, scale 0-9, averaged
Just the number.

| Compound Structure | Parameter | Experimental Value |
| --- | --- | --- |
| CCn1ncc(C(=S)c2ccc3c(c2C)/C(=N/OC)CCS3(=O)=O)c1O | Herbicide rating ECHCG | 8.0 |
| CCn1ncc(C(=S)c2ccc3c(c2C)C(C)(C)CS3(=O)=O)c1O | Herbicide rating ECHCG | 8.0 |
| Cc1c(C(=S)c2cnn(C)c2O)ccc2c1C(C)(C)CS2(=O)=O | Herbicide rating ECHCG | 7.0 |

Now consider a different compound.
Print ECHCG (Barnyardgrass) Herbicide rating ECHCG for "CCn1ncc(C(=S)c2cc(C)c3c(c2C)C(C)(C)CCS3(=O)=O)c1O" .
5.0

====

- Test system: ECHCG (Barnyardgrass)
- Assay Overview: Preemergence herbicidal evaluation
- Type: in vivo, Echinochloa crus-galli, (L.) Beau
- Condition Info: 0.100 kg/ha, rated about 2-4 weeks after treatment, scale 0-9
Tick MET if Herbicide rating ECHCG is 8 or greater. Tick NOT MET if Herbicide rating ECHCG is less than 8.

| Compound Structure | Group |
| --- | --- |
| Cc1c(C(=S)c2cnn(C)c2O)ccc2c1C(C)(C)CS2(=O)=O | MET |
| CCn1ncc(C(=S)c2ccc3c(c2C)/C(=N/OC)CCS3(=O)=O)c1O | MET |

Does the compound "CCn1ncc(C(=S)c2cc(C)c3c(c2C)C(C)(C)CCS3(=O)=O)c1O" have recorded Herbicide rating ECHCG that is 8 or more?
NOT MET

Does the compound "CCn1ncc(C(=S)c2ccc3c(c2C)C(C)(C)CS3(=O)=O)c1O" have recorded Herbicide rating ECHCG that is 8 or more?
MET

Does the compound "CCCS(=O)(=O)Oc1c(C(=S)c2ccc3c(c2C)/C(=N/OC)CCS3(=O)=O)cnn1CC" have recorded Herbicide rating ECHCG that is 8 or more?
NOT MET
